biological target: Protein arginine N-methyltransferase 1 (Homo sapiens) (UniProt Q99873); test: human PRMT1 activity-probe blockers – biochemical, fluorescence polarization, primary screen (AID 652257); details: recombinant PRMT1, activity-based probe fluorescence polarization; at 2.79 µM; stronger effect = higher value
Sequence (Q99873 whole entry, looked up): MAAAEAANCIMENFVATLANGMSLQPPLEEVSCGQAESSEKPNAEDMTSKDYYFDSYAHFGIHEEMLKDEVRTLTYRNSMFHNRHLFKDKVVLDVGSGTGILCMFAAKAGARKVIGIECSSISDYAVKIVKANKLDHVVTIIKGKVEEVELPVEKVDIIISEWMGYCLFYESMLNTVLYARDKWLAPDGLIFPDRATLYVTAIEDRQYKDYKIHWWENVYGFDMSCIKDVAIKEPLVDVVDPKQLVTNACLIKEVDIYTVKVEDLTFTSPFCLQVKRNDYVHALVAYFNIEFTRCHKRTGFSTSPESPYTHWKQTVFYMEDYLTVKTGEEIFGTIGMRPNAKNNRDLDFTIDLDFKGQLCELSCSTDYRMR
About 4,800 (1.3%) of roughly 370,000 compounds were called active. The entries come from a sample that favours actives as a whole.
OBSERVED_PROPERTY: inhibition (%)
Respond numerically; units are % and should not be typed.

Reference set, count: 2
{"MOLECULE": "Cc1ccc(N2C(=O)CC(Sc3ncn[nH]3)C2=O)cc1 (stereo unspecified)", "TARGET_OF_ASSAY": "Protein arginine N-methyltransferase 1 (Homo sapiens) (UniProt Q99873)", "UNITS_TEXT": "%", "inhibition": 85.1}
{"MOLECULE": "CCOC(=O)c1ccc(NC(=S)N2CCN(c3ccccn3)CC2)cc1", "TARGET_OF_ASSAY": "Protein arginine N-methyltransferase 1 (Homo sapiens) (UniProt Q99873)", "UNITS_TEXT": "%", "inhibition": -2.24}

Could you share which inhibition value was measured for CCOc1ccccc1N1C(=O)CC(Sc2nccc(C)n2)C1=O (stereo unspecified) ?
14.4

I'd like to know its inhibition. The molecule in question is Cc1ccc(-n2c(SCC(=O)Nc3cccc4ccccc34)nnc2-c2ccccn2)cc1
-1.87

Looking for the measured inhibition of C=CCn1c(N)cc(=O)nc1SCC(=O)Nc1cccc2ccccc12 , can you help?
-1.49

Return reported inhibition; argument: COc1ccc(CN2C/C(=C/c3ccccc3)N3C(=O)C[C@@H](c4ccccc4)N=C23)c(OC)c1
0.52

Given the molecule O=C(O)CCn1c(O)c(C=C2N=c3ccccc3=N2)sc1=S , what is its reported inhibition?
29.5

Data request, read-out inhibition, for Cc1cccc(NC(=O)C[C@H]2CC[C@H]3[C@@H](COc4ccc(NC(=O)Nc5ccccc5)cc4C(=O)N3C)O2)c1
0.26

May I ask what inhibition has been recorded for Cc1ccccc1-n1c(SCC(=O)Nc2cccc3ccccc23)nc(O)cc1=O ?
27.6

====

target: Protein arginine N-methyltransferase 1 (Homo sapiens) (UniProt Q99873); assay: human PRMT1 activity-probe blockers – biochemical, fluorescence polarization, primary screen (AID 652257); settings: recombinant PRMT1, activity-based probe fluorescence polarization; at 2.79 µM
Among all 370,000 compounds or so, about 4,800 (1.3%) were called active.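 How the source made its calls: active means inhibition above about 21% made by adding two undisclosed values (limit read from the data); inactive means the rest.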 For the sample, actives were picked, then their nearest neighbours and some compounds at random.
One label from this list, please: Yes (active), No (inactive)

Example entries begin here.
{"COMPOUND": "Cc1c(NS(=O)(=O)c2cc(C(=O)NCCc3ccc(F)cc3)cc(Cl)c2Cl)c(=O)n(-c2ccccc2)n1C", "LABEL_CLASS": "No"}
{"COMPOUND": "CC1(c2ccccc2Cl)NC(=O)N(CC(=O)NC(=O)NCc2ccco2)C1=O (stereo not given)", "LABEL_CLASS": "No"}
{"COMPOUND": "C=CCn1c(=S)[nH]c2scc(-c3ccco3)c2c1=O", "LABEL_CLASS": "Yes"}

Give the logged outcome of this assay for the following compound: CCC(=O)OCCCN1C(=O)CCC12CCC(c1ccccc1)CC2 (stereo not given)
No

Answer briefly: the call reported for O=C(CC1N=C2c3ccccc3N=C(SCc3ccccc3Cl)N2C1=O)NCc1ccco1 (stereo not given) in this assay.
Yes

These data points were gathered from PubChem BioAssay AID652257.
